Origin of the recorded values: the supplement of paper PMC7877785

assay: self-splicing fitness, log relative to wild type (ln ratio); higher = more splicing; Tetrahymena group I intron in knt gene, E. coli kanamycin selection, DiMSum; sequences stand for … in CUCUCU…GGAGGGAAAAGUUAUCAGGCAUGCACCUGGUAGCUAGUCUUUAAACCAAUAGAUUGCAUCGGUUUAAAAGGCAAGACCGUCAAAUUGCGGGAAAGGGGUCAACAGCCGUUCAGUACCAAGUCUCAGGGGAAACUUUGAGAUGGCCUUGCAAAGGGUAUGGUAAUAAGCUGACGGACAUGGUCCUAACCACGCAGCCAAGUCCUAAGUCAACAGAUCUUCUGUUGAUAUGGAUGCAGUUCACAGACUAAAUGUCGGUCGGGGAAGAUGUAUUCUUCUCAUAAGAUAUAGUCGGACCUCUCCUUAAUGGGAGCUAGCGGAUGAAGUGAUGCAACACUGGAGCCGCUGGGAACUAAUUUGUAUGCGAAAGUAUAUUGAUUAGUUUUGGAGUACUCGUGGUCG; settings: 37 °C;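 also: selection with 25 µg/mL kanamycin versus none on LB agar overnight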
Lab note: class by self-splicing fitness (ln), see bottom: < -2; middle: ≥ -2 and < -0.7; top: ≥ -0.7

Examples from the recorded data:
Which band does UGGUAGCAAUAUUACGAUCC fall in?
middle

Subsequent entry: GCCAAGCAAUAUUACGCGUU
top

What would you report for GCCCAGCAAUAUUACGCAUG ?
bottom

What do we get for UUAGAGCAAUAUUACGAUUG ?
top

For CUUCAGCAAUAUUACGCGAC then?
middle

New cases:
Into which category would you place GGCGAGCAAUAUUACGGAUG ?
middle

Repeat for the following sequence: CUGAAGCAAUAUUACGUAUA
bottom

GCGUAGCAAUAUUACGGACG , same question.
bottom
